System: B. subtilis
TEST_SUMMARY: MIC on (nutrient) agar
Type: cell-based
CONDITION_SUMMARY: Bacillus subtilis; B. subtilis, agar; read-out: minimum inhibitory concentration (MIC)
Structures can show the parent of a compound that is named as a salt.
Parameter: MIC. Scope: all listed entries.
# unit: µg/mL | format: bare number

Entry O=C(COc1ccccc1)N[C@@H]1C(=O)N2C(C(=O)O)=C(Cc3cccnc3)CS[C@H]12 [Example 9, trifluoroacetic acid salt] ; MIC = 0.25

Entry O=C(O)C1=C(Cc2cccnc2)CS[C@@H]2[C@H](NC(=O)[C@H](O)c3ccccc3)C(=O)N12 [Example 3, trifluoroacetate salt] ; MIC = 0.12

Entry CCSCC(=O)N[C@@H]1C(=O)N2C(C(=O)O)=C(Cc3cccnc3)CS[C@H]12 [Example 10, trifluoroacetic acid salt] ; MIC = 0.5

###

Parameter: MIC. Scope: all listed entries.
System: B. subtilis
TEST_SUMMARY: MIC on (nutrient) agar
Format: cell-based
CONDITION_SUMMARY: Bacillus subtilis; B. subtilis, agar; read-out: minimum inhibitory concentration (MIC)
Where a name gives a salt, the structure may show the parent alone.
# unit: µg/mL | format: bare number

O=C(Cc1ccncc1)N[C@@H]1C(=O)N2C(C(=O)O)=C(Cc3cccnc3)CS[C@H]12 [Example 17, di-trifluoroacetic acid salt]: 0.25
O=C(O)CSCC(=O)N[C@@H]1C(=O)N2C(C(=O)O)=C(Cc3cccnc3)CS[C@H]12 [Example 14, trifluoroacetic acid salt]: 25
NC(CC(=O)N[C@@H]1C(=O)N2C(C(=O)O)=C(Cc3cccnc3)CS[C@H]12)C1CC=CCC1 (mixture of isomers) [Example 18, di-trifluoroacetic acid salt]: 1.25
O=C(O)C1=C(Cc2cccnc2)CS[C@@H]2[C@H](NC(=O)[C@H](NC(=O)N3CCNC3=O)c3ccccc3)C(=O)N12 [Example 8, trifluoroacetic acid salt]: 1.25
NC(C(=O)N[C@@H]1C(=O)N2C(C(=O)O)=C(Cc3cccnc3)CS[C@H]12)C1CC1 (mixture of isomers) [Example 19, di-trifluoroacetic acid salt]: 12.5

Entry C[n+]1cccc(CC2=C(C(=O)O)N3C(=O)[C@@H](NC(=O)[C@H](N)c4ccccc4)[C@H]3SC2)c1 [Example 12, trifluoroacetic acid salt] ; MIC = 0.5
